Source of measurements: patent US4073912A

- test_details: in vivo
- Assay type: in vivo, rat
- test_context: rat, in vivo, ip; read-out: R/A ratio
measurement_kind: selectivity ratio

Query: For the molecule CN1CCN(C2=Nc3cc(Cl)ccc3Nc3ccccc32)CC1 , what selectivity ratio is on record?
Result: 3.8

* * *

- test_details: in vivo
- Type: in vivo, rat
- test_context: rat, in vivo, ip, ED50 (i.p.) rotation / ED50 (i.p.) avoidance, rat; high ratio predicts low potential to produce EPS; read-out: R/A ratio
Where a name gives a salt, the structure may show the parent alone.
measurement_kind: selectivity ratio

Query: Would you kindly share the measured selectivity ratio for O=c1[nH]c2ccccc2n1C1CCN(CCCC(c2ccc(F)cc2)c2ccc(F)cc2)CC1 [Pimozide] ?
Result: 0.3

Query: For the compound CN1CCC(=C2c3ccccc3Oc3ccc4ccccc4c32)CC1 [hydrochloride] , what selectivity ratio is on record?
Result: 10

Query: Tell me the measured selectivity ratio of CN(C)CCCN1c2ccccc2Sc2ccc(Cl)cc21 , please.
Result: 1.3

* * *

- test_details: in vivo
- Type: in vivo, rat
- test_context: rat, in vivo, ip, R/A ratio
- Description: There is evidence that antipsychotic drugs cause EPS by interfering with neurotransmission in a nigrostriatal dopaminergic pathway. It is thought that they block dopamine receptors in the neostriatum. […] To predict the potential ability of a drug to cause EPS, the ratio of its ED50 (i.p.) for antagonism of amphetamine-induced rotation to its ED50 (i.p.) for blockade of shock avoidance acquisition in the rat, a procedure for assessing antipsychotic activity, (R/A ratio) is calculated. […]
measurement_kind: selectivity ratio
No unit in the answer, only the number.

Query: I am curious: what selectivity ratio value has been reported for CN1CCN(CCCN2c3ccccc3Sc3ccc(C(F)(F)F)cc32)CC1 ?
Result: 0.46

Query: Give the measured selectivity ratio of O=C(CCCN1CCC(O)(c2ccc(Cl)cc2)CC1)c1ccc(F)cc1 .
Result: 0.31
